# Assay Summary: Cytotoxicity against human HepG2 cells incubated for 40 hrs by celltiter-glo luminescent cell viability assay
# Format: toxicity, cell-based
Reported Endpoint: IC50 at 40 h (µg/mL)
Give the number; µg/mL is assumed, so skip it.

Chem Smiles: CC(C)[C@H](NC(=O)[C@H](CCC(=O)O)NC(=O)[C@H](Cc1ccccc1)NC(=O)[C@@H](CCN)NC(=O)[C@H](CCN)NC(=O)[C@H](CO)NC(=O)[C@@H](Cc1c[nH]c2ccccc12)NC(=O)[C@@H](CO)NC(=O)CNC(=O)[C@@H](CCN)NC(=O)[C@H](N)C(C)C)C(=O)N[C@@H](C(=O)N[C@@H](C)C(N)=O)C(C)(C)C
Obs Value: 127

For the next question, use this molecule.
Exercise: Consider the molecule shown here: CC[C@H](C)[C@@H](NC(=O)[C@@H](NC(=O)[C@H](CCC(=O)O)NC(=O)[C@H](Cc1ccccc1)NC(=O)[C@@H](CCN)NC(=O)[C@H](CCN)NC(=O)[C@H](CO)NC(=O)[C@@H](Cc1c[nH]c2ccccc12)NC(=O)[C@@H](CO)NC(=O)CNC(=O)[C@@H](CCN)NC(=O)[C@H](NC(=O)[C@@H](C)N)C(C)C)C(C)C)C(=O)N[C@@H](C)C(=O)O What is its recorded IC50 at 40 h?
Key: 98
